# credit: patent US20260042764A1

- TARGET_OF_ASSAY: Avi-KRAS G12R (1-169) GppNHp/RAF1 RBD-3xFLAG (52-151) (Homo sapiens, UniProt P01116, G12R)
- Construct: Avi-KRAS G12R (1-169)
- Sequence (P01116 1-169 isoform P01116-2 G12R): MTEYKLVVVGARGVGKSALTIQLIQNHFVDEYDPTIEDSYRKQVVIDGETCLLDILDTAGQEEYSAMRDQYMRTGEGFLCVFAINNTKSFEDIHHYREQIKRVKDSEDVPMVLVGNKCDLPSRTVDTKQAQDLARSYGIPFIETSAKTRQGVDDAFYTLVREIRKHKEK
- PROTOCOL_DESCRIPTION: Raf1-KRAS G12R-GppNHP disruption HTRF assay (Biological Example 1)
- Type: binding
- CONDITION_SET: KRAS G12R, GppNHp-loaded; class symbols
pIC50: −log10 of the molar value.
Below is a list of entries, each paired with its recorded pIC50 value.

CCN(c1nc(OC[C@@]23CCCN2C[C@H](F)C3)nc2c(F)c(-c3ccc(F)c4sc(N)c(C#N)c34)c(C(F)(F)F)cc12)[C@H]1CC(=O)N(C)C1 (atropisomer, axis not shown): > 7.00

State pIC50 (Avi-KRAS G12R (1-169) GppNHp/RAF1 RBD-3xFLAG (52-151) (Homo sapiens, UniProt P01116, G12R)) of CCN(c1nc(OC[C@@]23CCCN2C[C@H](F)C3)nc2c(F)c(-c3ccc(F)c4sc(N)c(C#N)c34)c(C(F)(F)F)cc12)[C@H]1CCN(C(=O)N(C)C2COC2)C1 (atropisomer, axis not shown) .
> 7.00
